These data points were gathered from PubChem BioAssay (NCI).

experiment: NCI Yeast Anticancer Drug Screen. Data for the CLN2oe strain (AID 163);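 also: 0% = growth of vehicle-only control cultures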; settings: S. cerevisiae CLN2oe strain, at 3.7 µM, hits give high values
Compounds without any hit were thinned out: in the full panel of roughly 79,000, 15% have a hit. The source made the active and inactive calls. Rule as the data show it: active = growth inhibition above about 70%; inactive = the rest.
Observed property: growth inhibition

Would you please look over these solved cases?
Compound	Result
COc1ccc(/C=C/C(=O)C(C)(C)Br)cc1	3% (inactive)
CCOc1ccc2c(c1)c(CC(=O)O)cn2C	-1% (inactive)
CSC1=NNC(SC)=NN1	17% (inactive)
NC(=S)N/N=C\c1nccc2ccccc12	-11% (inactive)
BrCc1cccc2ccc3cccc(CBr)c3c12	0% (inactive)

// growth inhibition lookup, compound = "O=[N+]([O-])c1cc(CCl)ccc1CCl" , result: 15% (inactive)

// growth inhibition lookup, compound = "O=C(CCCN1CCC2(CC1)CC(=O)N(N1CCCCCC1)C2=O)c1ccc(F)cc1" , result: 45% (inactive)

// growth inhibition lookup, compound = "CC(=O)Oc1ccc2c(c1)Cc1cc(N=C3C=CC(=O)O3)ccc1-2" , result: 23% (inactive)

// growth inhibition lookup, compound = "CCC(=O)Oc1c(Cl)cc(Cl)c2ccccc12" , result: -2% (inactive)

// growth inhibition lookup, compound = Cc1cccc2c(C(O)CBr)cc(-c3ccc(Cl)cc3)nc12 (stereo unspecified) , result: -3% (inactive)

// growth inhibition lookup, compound = CN1c2ccc(Cl)cc2C(=O)NC1c1ccc([N+](=O)[O-])s1 (stereo unspecified) , result: -2% (inactive)

* * *

experiment: NCI Yeast Anticancer Drug Screen. Data for the sgs1 strain (AID 173);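 also: 0% = growth of vehicle-only control cultures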; settings: S. cerevisiae sgs1 mutant, at 11.0 µM
Compounds without any hit were thinned out: in the full panel of roughly 79,000, 15% have a hit. Calls of active or inactive are those of the source. No stated cut-off is given here; in the data, active means growth inhibition above about 70%; inactive means the rest.
Answer with one of the outcomes given here: yes (1) for active, no (0) for inactive

Compound	Label value
O=C1C2C(C(=O)N1c1ccc(OCc3ccccc3)cc1)C1c3ccccc3C2C2CCCCN21 (configuration not stated)	no (0)

Incoming: Query: recorded result category for O=[N+]([O-])CC(SCc1ccccc1)c1ccc2c(c1)OCO2 (configuration not stated) in this test
Outgoing: yes (1)

Incoming: Query: recorded result category for "CC(=O)OCc1ccc(O)c(C=O)c1" in this test
Outgoing: no (0)

* * *

experiment: NCI Yeast Anticancer Drug Screen. Data for the wt2 strain (AID 169);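 also: 0% = growth of vehicle-treated yeast cultures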; details: S. cerevisiae wt2 strain growth inhibition; at 3.7 µM; hits give high values
About 79,000 compounds went through this panel and 15% of them were active in at least one assay; those are over-represented in the sample as a whole.
Observed property: growth inhibition (%)
Write the number in % without appending the unit.

// growth inhibition lookup, compound = "CCCCc1cc(O)ccc1O" , result: -1

* * *

assay: NCI Yeast Anticancer Drug Screen. Data for the mlh1 strain (AID 171);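 also: 0% = growth of vehicle-treated control cultures of the same strain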; settings: S. cerevisiae mlh1 strain growth inhibition; at 11.0 µM
About 79,000 compounds went through this panel and 15% of them were active in at least one assay; those are over-represented in the sample as a whole. Activity calls are given as the source filed them. Rule as the data show it: active = growth inhibition above about 70%; inactive = the rest.
Answer with one of the outcomes given here: active, inactive

Incoming: Query: recorded result category for "Cc1ccc(NC(=O)/C(Cl)=C(\Cl)C(=O)O)cc1C" in this test
Outgoing: inactive

Incoming: Query: recorded result category for "C/C(=N\NC(=S)SCc1ccccc1)c1ccccn1" in this test
Outgoing: active

Incoming: Query: recorded result category for "O=C(NCCCCCCCN1CCCCCCC1)C(C1CCCCC1)C1CCCCC1" in this test
Outgoing: active

Incoming: Query: recorded result category for "Cc1ccc(S(=O)(=O)Oc2cc(Cl)c(Cl)cc2Cl)cc1" in this test
Outgoing: inactive

Incoming: Query: recorded result category for CC(O)C(O)C(O)C(/C=N\Nc1ccccc1)=N/Nc1ccccc1 (configuration not stated) in this test
Outgoing: inactive

Incoming: Query: recorded result category for "O=C(N=Nc1cc(Cl)ccc1Cl)NNc1cc(Cl)ccc1Cl" in this test
Outgoing: inactive

Incoming: Query: recorded result category for "CC(=O)N/N=C/C(C)(C)C(C)(C)/C=N/NC(C)=O" in this test
Outgoing: inactive

Incoming: Query: recorded result category for "CSC(=S)Nc1cccc(C)n1" in this test
Outgoing: inactive

Incoming: Query: recorded result category for C(=C\c1ccccc1)/COc1ccccc1C(N1CCOCC1)n1nc2ccccc2n1 (configuration not stated) in this test
Outgoing: inactive

Incoming: Query: recorded result category for "Fc1ccc(NC(=S)SCc2ccc3c(c2)OCO3)cc1F" in this test
Outgoing: inactive

Incoming: Query: recorded result category for "CSC1=NNC(SC)=NN1" in this test
Outgoing: inactive

Incoming: Query: recorded result category for "Cc1nc(-c2ccccc2)c(-c2ccccc2)s1" in this test
Outgoing: inactive

Incoming: Query: recorded result category for CCCCCCCCCCCCCC[N+](C)(CC(=O)[O-])Cc1ccccc1 (configuration not stated) in this test
Outgoing: active

Incoming: Query: recorded result category for "O=C(CCCN1CCC2(CC1)CC(=O)N(N1CCCCCC1)C2=O)c1ccc(F)cc1" in this test
Outgoing: inactive

Incoming: Query: recorded result category for "C[Si](C)(C)CNC(=O)OCc1ccccc1" in this test
Outgoing: inactive

Incoming: Query: recorded result category for "O=C1c2ccccc2C(=O)c2cc(CBr)ccc21" in this test
Outgoing: inactive

Incoming: Query: recorded result category for OC1(c2ccccc2)CSC2=Nc3ccccc3C3CCN1N23 (configuration not stated) in this test
Outgoing: inactive
